molecular target: HLA DRB1*08:02 (Homo sapiens, UniProt P01903+P01911, A100R/A103L/A169T/F76Y/H45Y/I96F/K41T/L162R/M171V/P40S/Q125H/Q178H/Q39Y/Q99D/R218S/R42G/S66Y/V115G/W38E); assay: biochemical; format: binding; details: binder threshold 1,000 nM, read-out: In vitro (IC50 nM) DRB1*08:02
QUANTITY: IC50 (nM)
Give just the numeric value; nM need not be written.

# IC50 of CC(C)C[C@H](NC(=O)[C@H](C)NC(=O)[C@H](CCCNC(=N)N)NC(=O)[C@@H](NC(=O)[C@H](CC(C)C)NC(=O)[C@@H](N)[C@@H](C)O)[C@@H](C)O)C(=O)N[C@H](C(=O)N[C@@H](C)C(=O)N[C@@H](CCC(=O)O)C(=O)N[C@@H](CO)C(=O)N[C@@H](Cc1c[nH]cn1)C(=O)N[C@H](C(=O)N[C@@H](CC(=O)O)C(=O)N[C@H](C(=O)N[C@@H](CC(=O)O)C(=O)O)[C@@H](C)O)C(C)C)[C@@H](C)O [NSP12_50] = 501

----------
biological target: HLA DRB1*12:01 (Homo sapiens, UniProt P01903+P01911, A100R/A169T/D57E/D86V/F55L/H45Y/K41T/L162R/M171V/P40S/Q125H/Q178H/Q39Y/Q99D/R42G/S66L/T262R/V114A/V67L/W38E/Y59H/Y61H/Y89S); assay: biochemical; format: binding; settings: binder threshold 1,000 nM, read-out: In vitro (IC50 nM) DRB1*12:01
QUANTITY: IC50 (nM)
Give just the numeric value; nM need not be written.

Here is how some molecules turned out for IC50.
# MOLECULE, IC50 / nM
measured = [
    ("CC(C)[C@H](NC(=O)[C@H](CO)NC(=O)[C@H](CC(N)=O)NC(=O)[C@H](C)NC(=O)[C@H](Cc1ccc(O)cc1)NC(=O)[C@H](C)NC(=O)[C@@H](NC(=O)[C@@H](NC(=O)[C@H](C)NC(=O)[C@H](CC(=O)O)NC(=O)CNC(=O)[C@H](CO)NC(=O)[C@@H](N)CO)[C@@H](C)O)[C@@H](C)O)C(=O)N[C@@H](Cc1ccccc1)C(=O)N[C@@H](CC(N)=O)C(=O)O [Peptide 137]", 22700),
    ("CC(C)C[C@H](NC(=O)[C@H](CCCNC(=N)N)NC(=O)[C@H](Cc1ccc(O)cc1)NC(=O)[C@H](Cc1ccccc1)NC(=O)[C@@H](N)CCCNC(=N)N)C(=O)N[C@@H](C)C(=O)N[C@@H](CC(N)=O)C(=O)N[C@@H](CCC(=O)O)C(=O)N[C@@H](CS)C(=O)N[C@@H](C)C(=O)N[C@@H](CCC(N)=O)C(=O)N[C@H](C(=O)N[C@@H](CC(C)C)C(=O)N[C@@H](CO)C(=O)N[C@@H](CCC(=O)O)C(=O)O)C(C)C", 6320),
    ("CC(C)C[C@H](NC(=O)[C@H](C)NC(=O)[C@H](CCCNC(=N)N)NC(=O)[C@@H](NC(=O)[C@H](CC(C)C)NC(=O)[C@@H](N)[C@@H](C)O)[C@@H](C)O)C(=O)N[C@H](C(=O)N[C@@H](C)C(=O)N[C@@H](CCC(=O)O)C(=O)N[C@@H](CO)C(=O)N[C@@H](Cc1c[nH]cn1)C(=O)N[C@H](C(=O)N[C@@H](CC(=O)O)C(=O)N[C@H](C(=O)N[C@@H](CC(=O)O)C(=O)O)[C@@H](C)O)C(C)C)[C@@H](C)O", 4490),
    ("CC(C)C[C@H](NC(=O)[C@H](CCCNC(=N)N)NC(=O)[C@H](Cc1ccc(O)cc1)NC(=O)[C@H](Cc1ccccc1)NC(=O)[C@H](CCCNC(=N)N)NC(=O)[C@H](Cc1c[nH]cn1)NC(=O)[C@H](CO)NC(=O)[C@H](CC(C)C)NC(=O)[C@H](CO)NC(=O)[C@H](CS)NC(=O)[C@H](CS)NC(=O)[C@@H](NC(=O)[C@@H](NC(=O)[C@H](Cc1c[nH]cn1)NC(=O)[C@@H](N)CCCCN)[C@@H](C)O)[C@@H](C)O)C(=O)O", 59),
    ("CC[C@H](C)[C@H](NC(=O)[C@H](CC(=O)O)NC(=O)[C@H](CS)NC(=O)[C@H](CCSC)NC(=O)[C@@H](NC(=O)[C@@H]1CCCN1C(=O)[C@H](CC(C)C)NC(=O)[C@H](CC(N)=O)NC(=O)[C@H](Cc1ccc(O)cc1)NC(=O)[C@H](CCCNC(=N)N)NC(=O)[C@@H](N)Cc1ccc(O)cc1)[C@@H](C)O)C(=O)N[C@@H](CCCNC(=N)N)C(=O)N[C@@H](CCC(N)=O)C(=O)N[C@@H](CC(C)C)C(=O)N[C@@H](CC(C)C)C(=O)O [Peptide 92]", 5120),
]

We now examine a further molecule.
# IC50 of "CC[C@H](C)[C@H](NC(=O)[C@@H]1CCCN1C(=O)[C@H](CCSC)NC(=O)[C@@H](N)CC(C)C)C(=O)N[C@@H](CC(C)C)C(=O)N[C@H](C(=O)N[C@@H](CC(C)C)C(=O)N[C@H](C(=O)N[C@@H](CCCNC(=N)N)C(=O)N[C@@H](C)C(=O)N[C@@H](CC(C)C)C(=O)N[C@H](C(=O)N[C@@H](C)C(=O)N[C@@H](CCC(=O)O)C(=O)N[C@@H](CO)C(=O)O)[C@@H](C)O)[C@@H](C)O)[C@@H](C)O" = 131

----------
target: HLA DRB1*11:01 (Homo sapiens, UniProt P01903+P01911, A100R/A169T/A87E/I96F/K41T/L162R/M171V/P40S/Q125H/Q178H/Q39Y/Q99D/R42S/S66Y/T262R/V115G/W38E); experiment: biochemical; format: binding; details: binder threshold 1,000 nM, read-out: In vitro (IC50 nM) DRB1*11:01
Sequence (P01903 26-254, other chains not shown): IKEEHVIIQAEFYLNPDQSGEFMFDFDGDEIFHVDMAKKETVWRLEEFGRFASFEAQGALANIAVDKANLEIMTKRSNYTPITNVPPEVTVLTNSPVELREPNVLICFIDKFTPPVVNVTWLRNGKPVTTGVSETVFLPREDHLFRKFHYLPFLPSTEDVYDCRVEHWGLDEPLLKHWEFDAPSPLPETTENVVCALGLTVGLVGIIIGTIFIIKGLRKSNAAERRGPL
QUANTITY: IC50 (nM)
Give just the numeric value; nM need not be written.

Here is how some compounds turned out for IC50.
# COMPOUND, UNIT_STRING, ENDPOINT_RESULT
rows = [
    ("CSCC[C@H](NC(=O)[C@H](CO)NC(=O)[C@H](Cc1ccccc1)NC(=O)[C@H](Cc1c[nH]cn1)NC(=O)[C@H](CCCCN)NC(=O)[C@H](CCCNC(=N)N)NC(=O)[C@H](CC(C)C)NC(=O)[C@H](Cc1ccc(O)cc1)NC(=O)[C@H](C)NC(=O)[C@H](Cc1ccc(O)cc1)NC(=O)[C@H](Cc1ccccc1)NC(=O)[C@H](CCC(=O)O)NC(=O)[C@H](CC(N)=O)NC(=O)[C@@H](NC(=O)[C@@H](N)Cc1ccccc1)C(C)C)C(=O)O", "nM", 70),
    ("CC(C)[C@H](NC(=O)[C@H](CO)NC(=O)[C@H](CC(N)=O)NC(=O)[C@H](C)NC(=O)[C@H](Cc1ccc(O)cc1)NC(=O)[C@H](C)NC(=O)[C@@H](NC(=O)[C@@H](NC(=O)[C@H](C)NC(=O)[C@H](CC(=O)O)NC(=O)CNC(=O)[C@H](CO)NC(=O)[C@@H](N)CO)[C@@H](C)O)[C@@H](C)O)C(=O)N[C@@H](Cc1ccccc1)C(=O)N[C@@H](CC(N)=O)C(=O)O [Peptide 137]", "nM", 15900),
]

# IC50 of "CC[C@H](C)[C@H](NC(=O)[C@@H]1CCCN1C(=O)[C@H](CCSC)NC(=O)[C@H](CC(C)C)NC(=O)[C@H](CC(C)C)NC(=O)[C@H](CO)NC(=O)[C@H](Cc1ccc(O)cc1)NC(=O)[C@H](Cc1ccc(O)cc1)NC(=O)[C@@H](N)CO)C(=O)N[C@@H](CC(C)C)C(=O)N[C@H](C(=O)N[C@@H](CC(C)C)C(=O)N[C@H](C(=O)N[C@@H](CCCNC(=N)N)C(=O)N[C@@H](C)C(=O)O)[C@@H](C)O)[C@@H](C)O" = 73

----------
target: HLA DRB1*11:01 (Homo sapiens, UniProt P01903+P01911, A100R/A169T/A87E/I96F/K41T/L162R/M171V/P40S/Q125H/Q178H/Q39Y/Q99D/R42S/S66Y/T262R/V115G/W38E); test: biochemical; assay type: binding; details: binder threshold 1,000 nM, read-out: In vitro (IC50 nM) DRB1*11:01
QUANTITY: IC50 (nM)
Give just the numeric value; nM need not be written.

# MOLECULE, IC50 [nM]
data = [
    ("CC(C)C[C@H](NC(=O)[C@H](CCCNC(=N)N)NC(=O)[C@H](Cc1ccc(O)cc1)NC(=O)[C@H](Cc1ccccc1)NC(=O)[C@@H](N)CCCNC(=N)N)C(=O)N[C@@H](C)C(=O)N[C@@H](CC(N)=O)C(=O)N[C@@H](CCC(=O)O)C(=O)N[C@@H](CS)C(=O)N[C@@H](C)C(=O)N[C@@H](CCC(N)=O)C(=O)N[C@H](C(=O)N[C@@H](CC(C)C)C(=O)N[C@@H](CO)C(=O)N[C@@H](CCC(=O)O)C(=O)O)C(C)C [NSP12_131]", 367),
]

# IC50 of CC(C)C[C@H](NC(=O)[C@H](Cc1ccc(O)cc1)NC(=O)[C@H](C)NC(=O)[C@H](Cc1ccc(O)cc1)NC(=O)[C@H](Cc1ccccc1)NC(=O)[C@H](CCC(=O)O)NC(=O)[C@H](CC(N)=O)NC(=O)[C@@H](NC(=O)[C@H](Cc1ccccc1)NC(=O)[C@H](CC(=O)O)NC(=O)[C@@H](NC(=O)[C@H](CC(=O)O)NC(=O)[C@@H](NC(=O)[C@@H](N)CC(=O)O)C(C)C)[C@@H](C)O)C(C)C)C(=O)N[C@@H](CCCNC(=N)N)C(=O)O [Peptide 148] = 949

# IC50 of CC(C)C[C@H](NC(=O)[C@H](CCCNC(=N)N)NC(=O)[C@H](Cc1ccc(O)cc1)NC(=O)[C@H](Cc1ccccc1)NC(=O)[C@H](CCCNC(=N)N)NC(=O)[C@H](Cc1c[nH]cn1)NC(=O)[C@H](CO)NC(=O)[C@H](CC(C)C)NC(=O)[C@H](CO)NC(=O)[C@H](CS)NC(=O)[C@H](CS)NC(=O)[C@@H](NC(=O)[C@@H](NC(=O)[C@H](Cc1c[nH]cn1)NC(=O)[C@@H](N)CCCCN)[C@@H](C)O)[C@@H](C)O)C(=O)O [NSP12_129] = 235
